- experiment_description: in vitro
- experimental_parameters: dog, CPE Inhibition IC50 (50% cell inhibitory (cytotoxic) concentration), Influenza A (H1N1) test

compound: O=c1cc(-c2ccc(O)c(-c3c(O)cc(O)c4c(=O)cc(-c5ccc(O)cc5)oc34)c2)oc2cc(O)cc(O)c12
sign: =
IC50 / µg/mL: 22
//
compound: O=c1cc(-c2ccc(O)c(-c3c(O)cc4oc(-c5ccc(O)cc5)cc(=O)c4c3O)c2)oc2cc(O)cc(O)c12
sign: =
IC50 / µg/mL: 18
//
compound: COc1ccc(-c2cc(=O)c3c(OC)cc(OC)c(C4C(=O)c5c(OC)cc(OC)cc5OC4c4ccc(OC)cc4)c3o2)cc1 (stereo not drawn)
sign: <
IC50 / µg/mL: 24
